- METHOD: solvent given as SMILES
- RUN PARAMETERS: in CC(C)O
Binary call on solvation free energy, 298 K with cut-off -5 kcal/mol: strictly below means condition met, and equality or higher means condition not met.

* CC(Cl)(Cl)Cl | condition not met
* CCCCCCO | condition met
* c1ccc(-c2ccccc2)cc1 | condition met
* CCCCCCC | condition not met
* c1cc2ccc3cccc4ccc(c1)c2c34 | condition met
* O=c1[nH]c2ccccc2n1C1CCN(CCCC(c2ccc(F)cc2)c2ccc(F)cc2)CC1 | condition met
* O=C(O)c1ccc(Cl)c([N+](=O)[O-])c1 | condition met
* CCOC(C)=O | condition not met
* c1ccc(P(c2ccccc2)c2ccccc2)cc1 | condition met
* CC(C)=O | condition not met
* C=CC | condition not met
* C1CC1 | condition not met
* COc1ccc(C(=O)O)cc1 | condition met
* O=C(O)c1cc([N+](=O)[O-])ccc1Cl | condition met
* O=C(O)c1cccc([N+](=O)[O-])c1 | condition met
